Can you tell me melting point for the items I'm about to list?

-- ask For CC(C)c1cccc(C(C)C)c1NC(=O)Nc1nnn(CCCCCCCCCCCCO)n1 , what is its reported melting point?
-- reply 80 to 90 °C

-- ask Tell me the measured melting point of Cc1ccc(NC(=O)CCCC2CCCCC2)cc1NC(=O)c1ccc(O)cc1 , please.
-- reply 159 to 160 °C

-- ask Reported melting point for COc1ccc(N2CCN(c3c(C)c(C)c4c(c3C)C[C@@H](C)O4)CC2)cc1 : what is it?
-- reply 127 to 128 °C

-- ask Any idea what melting point was measured for COc1cccc(CCc2cc(C(C)(C)C)c(O)c(C(C)(C)C)c2)c1NC(=O)NC1CCN(Cc2ccccc2)CC1 ?
-- reply 184 to 185 °C

Next:
-- ask Would you kindly share the measured melting point for CC(C)CCOc1c(-c2ccc(S(C)(=O)=O)cc2)cnn(C(C)(C)C)c1=O ?
-- reply 138 to 139 °C

Measured values drawn from a melting point compilation (Tetko et al.; mined from patent text by program, amines drawn as free bases though some values may be those of a salt) for this set.
